- EXPERIMENTAL DETAILS: yeast display, Sf9 membrane polyspecificity reagent, FACS + sequencing; frameworks hold sequencing errors
MEASURED METRIC: polyreactivity (PSR sort gate)

// known answers, use as guide
{"PRIMARY SEQUENCE": "QVQLVESGGGLVQAGGSLRLSCAASGITFSVYAMGWYRQAPGTERELVAAISGSAGSTYYADSVKGRFTISRDNAKNTVYLQLNSLKPEDTAVYYCAARLAPKYSPSSYNYWGEGTQVTVSS", "polyreactivity (PSR sort gate)": "high polyreactivity"}
{"PRIMARY SEQUENCE": "QVQLVESGGGLVQAGGSLRLSCAASGGIFGWYAMGWYRQAPGKERELVATITWRGGRTYYADSVKGRFTISRDNAKNTVYLQMNSLKPEDTAVYYCNAEWLWYDAGYRYTIRDSWGQGTQVTVSS", "polyreactivity (PSR sort gate)": "low polyreactivity"}
{"PRIMARY SEQUENCE": "QVQLVESGGGLVQAGGRLRLSCAASGFTFYNYAMGWYRQAPGKERELVAAISWSGGSTHYADSVKGRFTISRDNAKNTVFLQMNSLKPEDTAVYYCAKVGVLGYYTYYYWGQGTQVTVSS", "polyreactivity (PSR sort gate)": "low polyreactivity"}
{"PRIMARY SEQUENCE": "QVQLVESGGGLFQEGGSLRLSCAASGSIFNGYAMGWYRQAPGKEREFVDAITFSATSTYYADSVKRRFTLSRDNAKNTVYLQMNSLKPEDTAVYYCAVAVPLSRYWWRRTYDYWGQGTQVTVSS", "polyreactivity (PSR sort gate)": "low polyreactivity"}
{"PRIMARY SEQUENCE": "QVQLVESGGGLVQAGGSLRLSCAASGNTFSYYAMGWYRQAPGKEREFVAAIRKSGASTYYADSVKGRFTISRDNAKNTVYLQMNSLKPEDTAVYYCAADGQVSYALGFDYWGQGTQVTVSS", "polyreactivity (PSR sort gate)": "high polyreactivity"}

Task item: Data request, read-out polyreactivity (PSR sort gate), for `QVQLVESGGGLVQAGGSLRLSCAASGSTFGFYAMGWYRQAPGKERELVAAISVSGGSTYYADSVKGRFTISRDNAKNTVYLQMNSLNPEDTGVYYCNKVWRPRYYWGLGTQVTVSS`
Reply: high polyreactivity

Task item: Data request, read-out polyreactivity (PSR sort gate), for `QVQLVESGGGLVQAGGSLRLSCAASGFTFREYAMGWYRQAPGKERELVAAIDWSGGSTYYADSVKGRFTISRDNAKNTVYLQMNRLKPEDTAVYYCNVDFYDWYVYLWYVDYDYCGQGTQVTVSS`
Reply: high polyreactivity

Task item: Data request, read-out polyreactivity (PSR sort gate), for `QVQLVESGGGLVQAGGSLRLSCAASGSIIQGYVMGWYRQAPGKERELVAAISNSGSSTYYADSVKGRFTISRDNAKNTVYIQMNSLKPEDTAVYYCAVLRSYRGYKYGYWGQGTQVTVSS`
Reply: high polyreactivity

Task item: Data request, read-out polyreactivity (PSR sort gate), for `QVQLVESGGGLVQAGGSLRLSCAASGSIFPSNAMGWYRQAPGKERELVAAISSSGGRTYYADSVKGRFTISRDNAKNTVYLQMNSLKPEDTAVYYCNRVYFKSRQGQMYYWGQGTQVTVSS`
Reply: high polyreactivity

Task item: Data request, read-out polyreactivity (PSR sort gate), for `QVQLVESGGGLVQAGCSLRLSCAASGSIFPCNAMGWYRQAPGKERELVAAISRGCSTNYADSVKGRFTISRDNAKNTDYLQMNSLKPEDTSVFDCAVYYYSYHGGRGYDYWGQGTQVTVSS`
Reply: high polyreactivity

Task item: Data request, read-out polyreactivity (PSR sort gate), for `QVQLVESGGGLVQAGGSLRLSCAASGFIFANYAMGWDRQAPGKERELVAAISTSGSSTYYADSVKGRFTISRDNAKNTVYLQMNSLKPKDTAVYYCRTSGKHRLYISSYRFEYWGQGTQVTVSS`
Reply: high polyreactivity

---

- EXPERIMENTAL DETAILS: yeast display, Sf9 membrane polyspecificity reagent, FACS + sequencing; frameworks hold sequencing errors
MEASURED METRIC: polyreactivity (PSR sort gate)

// known answers, use as guide
{"PRIMARY SEQUENCE": "QVQLVESGGGLVQAGGSLRLSCAASGSIFYRYAMGWYRQAPGKVRELVAAINNGGGRTYADSVKGRFTISRDNAKNTVYFQMNSLKPEDTAVYYCAKRTSRLAPYDYWGQGTQVTVSS", "polyreactivity (PSR sort gate)": "high polyreactivity"}
{"PRIMARY SEQUENCE": "QVQLVESGGGLVQAGGSLRLSCAASGSNFTQYAMGWYRQAPGTERELVAAISSGTRTYYADSVKGRFTISRDNAKNTVYVQMNSLKPEDTAVYYCAARYRSYFYWSGYWGHGTQVTVSS", "polyreactivity (PSR sort gate)": "low polyreactivity"}
{"PRIMARY SEQUENCE": "QVQLVESGGGLVQAGGSLRLSCAASGYTFAPNTMGWYRQAPGKERELVATITVSGGITYADSVKGRFTISRDNAKNTVYLQMNSLKPEDTAVYYCAARTPGWYLPRDYWGQGTQVTVSS", "polyreactivity (PSR sort gate)": "low polyreactivity"}
{"PRIMARY SEQUENCE": "QVQLVESGGGLVQAGGSLRLSCAASGSIFGRNALGWSRQAPGKERELVAAIRDSGTSTYYADSVKGRFTISRDNAKNTVYLQMNSLKPEDTAVYYCAASRRPGYTYGYWGQGTQVTVSS", "polyreactivity (PSR sort gate)": "high polyreactivity"}
{"PRIMARY SEQUENCE": "QVQLVESGGGLVQAGGSLRLSCAASGSIFWFNAMGWYRQAPGNERELVATIRYSGGSTYYADSVKGRFTISRDNAKNTVYLQMNSLKPEDTAVYYCAAVSRYSRSGYEYWGQGTQVTVSS", "polyreactivity (PSR sort gate)": "high polyreactivity"}
{"PRIMARY SEQUENCE": "QVQLVESGGGLVQAGGSLRLSCAASGRTLTRYTMGWYRQAPGKERELVATISRSGGNTHYADSVKGRFTISRDNAKNTVYLQMNSLKPEDTAVYYCNAVRYALYGYDYWGQGTQVTVSS", "polyreactivity (PSR sort gate)": "high polyreactivity"}

Task item: Data request, read-out polyreactivity (PSR sort gate), for `QVQLVESGGGLVQAGGSLRLSCAASGRIFRRYAMGWYRQAPGKERELVAAISSGGSTYYADSVKGRFTISRDNEKNTVYLQLNSLKPEDSAVYYCNAKVGAYLNYGYWGQGTQVTVSS`
Reply: low polyreactivity

Task item: Data request, read-out polyreactivity (PSR sort gate), for `QVQLVESGGGLVQAGGSLSLSCAASGSTFVPNLMGWYRQAPGKERELVAAITWSGGTTTFYADSVKGRFTISRDNAKNTVYLQMNSLKPEDTAVYYCAVTRGGQYYPYYYWGQGTQVTVSS`
Reply: low polyreactivity

Task item: Data request, read-out polyreactivity (PSR sort gate), for `QVQLVESGGGLVQAGGSLRLSCAASGSTFRYYAMGRYRQAPGKERELVAVISTSGNTYYADSVKGRFTISRDNAKNTVYLQMNSLKPEDTAGYYCAAGGVGGQISQEYDYWGQGTQVTVSS`
Reply: low polyreactivity

Task item: Data request, read-out polyreactivity (PSR sort gate), for `QVQLVESGGGLVQAGGSLRLSCAASGRTFYPNAMGWSRQAPGQERAFVARISDSGGSTYYADSVKGRFTISRDNAKNTVYLQMNSLKPEDNAVYYCAADYGDPRVNEYDYWGQGTQVTVSS`
Reply: low polyreactivity

Task item: Data request, read-out polyreactivity (PSR sort gate), for `QVQLVDSGGGLVQAGGTLRLSCSASGRTFPTYAMGWYRQAPGKEREVVAAISSSGCSTYYADSVKGRFTISRDNAKNSVYLQMHSLKPEDTAVYYCAALRDRNLNPGYDYWGQGTQLTVSS`
Reply: low polyreactivity

---

- EXPERIMENTAL DETAILS: yeast display, Sf9 membrane polyspecificity reagent, FACS + sequencing; frameworks hold sequencing errors

{"PRIMARY SEQUENCE": "QVQLVESGGGLVQAGGSLRLSCAASGRIFGGYTMGWYRQAPGKEREFVAAITSSGGSTYYADSVKGRFTISRDNAKNTVYLQMNSLKPEDTAVYYCAVDDYYYDYDYWGQGTQVTVSS", "polyreactivity (PSR sort gate)": "low polyreactivity"}
{"PRIMARY SEQUENCE": "QVQLVESGGGLVQAGGSLRLSCAASGSTFAKNAMGWYRQAPGKERELVAAITYSGGSTYYADSVKGRFTISRDNAKNTVYLQMNSLKPEDTAVYFCASDVWWSDYRYDYWGQGTQVTVSS", "polyreactivity (PSR sort gate)": "low polyreactivity"}

---

- EXPERIMENTAL DETAILS: yeast display, Sf9 membrane polyspecificity reagent, FACS + sequencing; frameworks hold sequencing errors

{"PRIMARY SEQUENCE": "QVQLVESGGGLVQAGGSLRLSCAASGSIFHYYTMGWYRQAPGKERELVAGISRSGTSTFYADSVKGRFTISRDNAKKTVYLQMNSLKPEDTAVSYCNAYSPGSYYYWPYDYWGQGTQVTVSS", "polyreactivity (PSR sort gate)": "high polyreactivity"}
{"PRIMARY SEQUENCE": "QVQLVESGGGLVQAGGSLRLSCAASGSTFPYPYTMGWYRQAPGKERELVAVNSRTGGSTFYADSVKGRFTISRDNAKNTVYFQMNSLKPEDTAVYYCAARRDGWTFWKYDYWGQGTQVTVSS", "polyreactivity (PSR sort gate)": "high polyreactivity"}
